- Measurement target: HLA-A*30:02
- Protocol: IEDB peptide-MHC binding, purified MHC/competitive/radioactivity; filed as Kd, often an IC50 or EC50 that approximates it; bounds were set here for any values at or beyond the usual limits of such assays
- Condition context: source organism: Triticum aestivum
pKd: −log10 of the molar value.
Measured parameter: pKd

a = QYSQPQQPI
b = QFEEIRNLAL
stdin: Between the two listed entries a and b , which has its pKd at the higher number? Could you answer with the label of the item you picked?
stdout: a

* * *

- Measurement target: HLA-B*35:01
- Protocol: IEDB peptide-MHC binding, purified MHC/competitive/radioactivity; filed as Kd, often an IC50 or EC50 that approximates it; bounds were set here for any values at or beyond the usual limits of such assays
- Condition context: source organism: Mammarenavirus guanaritoense
Measured parameter: Kd (nM)
Entry rule: numbers only, all in nM.

stdin: Which Kd value belongs to LPNDRVLDI ?
stdout: 2690

* * *

- Measurement target: HLA-B*18:01
- Protocol: IEDB peptide-MHC binding, purified MHC/direct/fluorescence; filed as Kd, often an IC50 or EC50 that approximates it; bounds were set here for any values at or beyond the usual limits of such assays
- Condition context: source organism: West Nile virus
This listing pairs sequences with measured Kd.

HSRRSRRSL : ≥ 20 µM

Next sequence, please.
stdin: Bench note: what Kd did FTRYRKEAI show?
stdout: ≥ 20 µM

* * *

Entries and their measured Kd follow.
- Measurement target: HLA-A*02:17
- Protocol: IEDB peptide-MHC binding, purified MHC/competitive/radioactivity; filed as Kd, often an IC50 or EC50 that approximates it; bounds were set here for any values at or beyond the usual limits of such assays
- Condition context: source organism: Dengue virus 4 Philippines/H241/1956
Report as a plain number; the unit nM is understood.

FLEFEALGFL : 107

stdin: Recorded Kd for RTIMAVLFVV , please?
stdout: 887

* * *

- Measurement target: HLA-A*11:01
- Protocol: IEDB peptide-MHC binding, purified MHC/direct/fluorescence; filed as Kd, often an IC50 or EC50 that approximates it; bounds were set here for any values at or beyond the usual limits of such assays
- Condition context: source organism: Escherichia coli
Measured parameter: Kd

stdin: Returns the measured Kd for the input sequence. Input: WCRVGRGTI
stdout: ≥ 20 µM

* * *

Listing of entries alongside the reported pKd.
- Measurement target: HLA-B*27:05
- Protocol: IEDB peptide-MHC binding, purified MHC/direct/fluorescence; filed as Kd, often an IC50 or EC50 that approximates it; bounds were set here for any values at or beyond the usual limits of such assays
- Condition context: source organism: Campylobacter jejuni
pKd: −log10 of the molar value.

VFKVKLHEI : ≤ 4.70

stdin: Quick check: pKd on HLA-B*27:05, item VKKLWGHLP ?
stdout: ≤ 4.70

* * *

- Measurement target: HLA-A*69:01
- Protocol: IEDB peptide-MHC binding, purified MHC/competitive/fluorescence; filed as Kd, often an IC50 or EC50 that approximates it; bounds were set here for any values at or beyond the usual limits of such assays
- Condition context: source organism: Orthohantavirus khabarovskense
Measured parameter: Kd

stdin: Quick one: Kd of FSLPSSSSY ?
stdout: ≥ 20 µM

* * *

- Measurement target: HLA-A*01:01
- Protocol: IEDB peptide-MHC binding, purified MHC/direct/fluorescence; filed as Kd, often an IC50 or EC50 that approximates it; bounds were set here for any values at or beyond the usual limits of such assays
- Condition context: source organism: Ebola virus - Eckron (Zaire, 1976)
Measured parameter: Kd (µM)
The figure you give is taken to be in µM; do not add the unit.

stdin: Quick check: Kd of QTEPKTSVV ?
stdout: 16.4
